Data provenance is the supplement of paper PMC10307832.

- Tested on: SK-MES-1
- experiment_notes: relative viability (nuclei count vs DMSO), 5 days (fraction); higher = more cells survive
- assay_conditions: first compound 0.04 µM
Record form. Attribute: relative viability. Fill in for each entry.
Output: the number by itself.

Requested field: relative viability. Item: O=C(O)c1ccc(-c2c[nH]c3ncc(-c4ccccc4)cc23)cc1C1CCCC1 + Cc1nc(NC(=O)N2CCC[C@H]2C(N)=O)sc1-c1ccnc(C(C)(C)C(F)(F)F)c1 [Alpelisib] (partner 2 µM)
0.83

Next: O=C(O)c1ccc(-c2c[nH]c3ncc(-c4ccccc4)cc23)cc1C1CCCC1 + Nc1nc2[nH]cc(CCc3ccc(C(=O)N[C@@H](CCC(=O)O)C(=O)O)cc3)c2c(=O)[nH]1 [Pemetrexed] (partner 0.2 µM)
0.959

Next up: O=C(O)c1ccc(-c2c[nH]c3ncc(-c4ccccc4)cc23)cc1C1CCCC1 + Cc1cc(Nc2cc(N3CCN(C)CC3)nc(Sc3ccc(NC(=O)C4CC4)cc3)n2)n[nH]1 [Tozasertib] (partner 0.1 µM)
0.93

Ok, now O=C(O)c1ccc(-c2c[nH]c3ncc(-c4ccccc4)cc23)cc1C1CCCC1 + C[C@@H](Oc1cc(-c2cnn(C3CCNCC3)c2)cnc1N)c1c(Cl)ccc(F)c1Cl [Crizotinib] (partner 1 µM)
0.942

Same read-out for O=C(O)c1ccc(-c2c[nH]c3ncc(-c4ccccc4)cc23)cc1C1CCCC1 + Cc1nc(Nc2ncc(C(=O)Nc3c(C)cccc3Cl)s2)cc(N2CCN(CCO)CC2)n1 [Dasatinib] (partner 0.075 µM) ?
0.406

----------
- System: NCI-H2170
- experiment_notes: relative viability (nuclei count vs DMSO), 5 days (fraction); higher = more cells survive
- assay_conditions: first compound 0.005 µM
outcome_measure: relative viability
Form: value (number only, do not type unit).

Item CC1(C)CCC(c2ccc(Cl)cc2)=C(CN2CCN(c3ccc(C(=O)NS(=O)(=O)c4ccc(N[C@H](CCN5CCOCC5)CSc5ccccc5)c(S(=O)(=O)C(F)(F)F)c4)cc3)CC2)C1 [Navitoclax] + Nc1ncn([C@H]2C[C@H](O)[C@@H](CO)O2)c(=O)n1 [Decitabine] (partner 2 µM) has what recorded relative viability?
0.473

Also check CC1(C)CCC(c2ccc(Cl)cc2)=C(CN2CCN(c3ccc(C(=O)NS(=O)(=O)c4ccc(N[C@H](CCN5CCOCC5)CSc5ccccc5)c(S(=O)(=O)C(F)(F)F)c4)cc3)CC2)C1 [Navitoclax] + CS(=O)(=O)CCNCc1ccc(-c2ccc3ncnc(Nc4ccc(OCc5cccc(F)c5)c(Cl)c4)c3c2)o1 [Lapatinib] (partner 2 µM)
0.275

How about this compound: CC1(C)CCC(c2ccc(Cl)cc2)=C(CN2CCN(c3ccc(C(=O)NS(=O)(=O)c4ccc(N[C@H](CCN5CCOCC5)CSc5ccccc5)c(S(=O)(=O)C(F)(F)F)c4)cc3)CC2)C1 [Navitoclax] + NC(=O)Nc1cc(-c2cccc(F)c2)sc1C(=O)N[C@H]1CCCNC1 [AZD7762] (partner 0.2 µM)
0.883

----------
- Test system: IA-LM
- experiment_notes: relative viability (nuclei count vs DMSO), 5 days (fraction); higher = more cells survive
- assay_conditions: first compound 0.5 µM
outcome_measure: relative viability
// return a plain number; no unit text

Please give the measured relative viability for this molecule: CC1(C)CCC(c2ccc(Cl)cc2)=C(CN2CCN(c3ccc(C(=O)NS(=O)(=O)c4ccc(N[C@H](CCN5CCOCC5)CSc5ccccc5)c(S(=O)(=O)C(F)(F)F)c4)cc3)CC2)C1 [Navitoclax] + CS(=O)(=O)CCNCc1ccc(-c2ccc3ncnc(Nc4ccc(OCc5cccc(F)c5)c(Cl)c4)c3c2)o1 [Lapatinib] (partner 2 µM)
0.903

Please do the same for CC1(C)CCC(c2ccc(Cl)cc2)=C(CN2CCN(c3ccc(C(=O)NS(=O)(=O)c4ccc(N[C@H](CCN5CCOCC5)CSc5ccccc5)c(S(=O)(=O)C(F)(F)F)c4)cc3)CC2)C1 [Navitoclax] + Cc1nc(NC(=O)N2CCC[C@H]2C(N)=O)sc1-c1ccnc(C(C)(C)C(F)(F)F)c1 [Alpelisib] (partner 2 µM) as well.
0.833

CC1(C)CCC(c2ccc(Cl)cc2)=C(CN2CCN(c3ccc(C(=O)NS(=O)(=O)c4ccc(N[C@H](CCN5CCOCC5)CSc5ccccc5)c(S(=O)(=O)C(F)(F)F)c4)cc3)CC2)C1 [Navitoclax] + CS(=O)(=O)N1CCN(Cc2cc3nc(-c4cccc5[nH]ncc45)nc(N4CCOCC4)c3s2)CC1 [Pictilisib] (partner 1 µM) , same question.
0.292

----------
- Test system: H3255
- experiment_notes: relative viability (nuclei count vs DMSO), 5 days (fraction); higher = more cells survive
- assay_conditions: first compound 0.01581 µM
outcome_measure: relative viability
Answer as a number with no unit attached.

I have this compound here, CC1(C)CCC(c2ccc(Cl)cc2)=C(CN2CCN(c3ccc(C(=O)NS(=O)(=O)c4ccc(N[C@H](CCN5CCOCC5)CSc5ccccc5)c(S(=O)(=O)C(F)(F)F)c4)cc3)CC2)C1 [Navitoclax] + Nc1ncn([C@H]2C[C@H](O)[C@@H](CO)O2)c(=O)n1 [Decitabine] (partner 2 µM) , and I need its recorded relative viability.
0.668

Another compound to check: CC1(C)CCC(c2ccc(Cl)cc2)=C(CN2CCN(c3ccc(C(=O)NS(=O)(=O)c4ccc(N[C@H](CCN5CCOCC5)CSc5ccccc5)c(S(=O)(=O)C(F)(F)F)c4)cc3)CC2)C1 [Navitoclax] + C[C@]1(O)C[C@@H](c2nc(-c3ccc4ccc(-c5ccccc5)nc4c3)c3c(N)nccn32)C1 [Linsitinib] (partner 1 µM)
1.12

Check CC1(C)CCC(c2ccc(Cl)cc2)=C(CN2CCN(c3ccc(C(=O)NS(=O)(=O)c4ccc(N[C@H](CCN5CCOCC5)CSc5ccccc5)c(S(=O)(=O)C(F)(F)F)c4)cc3)CC2)C1 [Navitoclax] + CCNC(=O)c1noc(-c2cc(C(C)C)c(O)cc2O)c1-c1ccc(CN2CCOCC2)cc1 [Luminespib] (partner 0.01 µM) too.
0.877

Item: CC1(C)CCC(c2ccc(Cl)cc2)=C(CN2CCN(c3ccc(C(=O)NS(=O)(=O)c4ccc(N[C@H](CCN5CCOCC5)CSc5ccccc5)c(S(=O)(=O)C(F)(F)F)c4)cc3)CC2)C1 [Navitoclax] + Cc1nc(NC(=O)N2CCC[C@H]2C(N)=O)sc1-c1ccnc(C(C)(C)C(F)(F)F)c1 [Alpelisib] (partner 2 µM)
0.745

----------
- Test system: NCI-H1437
- experiment_notes: relative viability (nuclei count vs DMSO), 5 days (fraction); higher = more cells survive
- assay_conditions: first compound 0.8 µM
outcome_measure: relative viability
Form: value (number only, do not type unit).

Please report the recorded relative viability for C=C1C(=O)O[C@@H](CCCCCCCC)[C@@H]1C(=O)O [C-75] + Cc1nc(NC(=O)N2CCC[C@H]2C(N)=O)sc1-c1ccnc(C(C)(C)C(F)(F)F)c1 [Alpelisib] (partner 2 µM) .
1.01

What would you report for Oc1nc(-c2ccc(C(F)(F)F)cc2)nc2c1CSCC2 [XAV939] + Cc1cc(Nc2cc(N3CCN(C)CC3)nc(Sc3ccc(NC(=O)C4CC4)cc3)n2)n[nH]1 [Tozasertib] (partner 0.1 µM) ?
0.443

Ok, now Oc1nc(-c2ccc(C(F)(F)F)cc2)nc2c1CSCC2 [XAV939] + C[C@]1(O)C[C@@H](c2nc(-c3ccc4ccc(-c5ccccc5)nc4c3)c3c(N)nccn32)C1 [Linsitinib] (partner 1 µM)
0.873

Now the same for C=C1C(=O)O[C@@H](CCCCCCCC)[C@@H]1C(=O)O [C-75] + COc1cccc2cc(-c3nc([C@H]4CC[C@H](C(=O)O)CC4)n4ncnc(N)c34)[nH]c12 [OSI-027] (partner 0.5 µM)
0.867

What do you have for C=C1C(=O)O[C@@H](CCCCCCCC)[C@@H]1C(=O)O [C-75] + CS(=O)(=O)CCNCc1ccc(-c2ccc3ncnc(Nc4ccc(OCc5cccc(F)c5)c(Cl)c4)c3c2)o1 [Lapatinib] (partner 2 µM) ?
0.746

Try the compound Oc1nc(-c2ccc(C(F)(F)F)cc2)nc2c1CSCC2 [XAV939] + Nc1nc2[nH]cc(CCc3ccc(C(=O)N[C@@H](CCC(=O)O)C(=O)O)cc3)c2c(=O)[nH]1 [Pemetrexed] (partner 0.2 µM)
0.326

Consider next the compound Oc1nc(-c2ccc(C(F)(F)F)cc2)nc2c1CSCC2 [XAV939] + O=C(CCCCCCC(=O)Nc1ccccc1)NO [Vorinostat] (partner 1 µM) in the same way.
0.62

----------
- System: NCI-H1975
- experiment_notes: relative viability (nuclei count vs DMSO), 5 days (fraction); higher = more cells survive
- assay_conditions: first compound 0.04 µM
outcome_measure: relative viability
Give the value as a plain number.

Which relative viability is reported with NCI-H1975 for this entry: O=C(O)c1ccc(-c2c[nH]c3ncc(-c4ccccc4)cc23)cc1C1CCCC1 + CS(=O)(=O)CCNCc1ccc(-c2ccc3ncnc(Nc4ccc(OCc5cccc(F)c5)c(Cl)c4)c3c2)o1 [Lapatinib] (partner 2 µM) ?
0.873

Do the same for O=C(O)c1ccc(-c2c[nH]c3ncc(-c4ccccc4)cc23)cc1C1CCCC1 + O=C(c1cc(Cc2n[nH]c(=O)c3ccccc23)ccc1F)N1CCN(C(=O)C2CC2)CC1 [Olaparib] (partner 8 µM) please
0.724

Param item: O=C(O)c1ccc(-c2c[nH]c3ncc(-c4ccccc4)cc23)cc1C1CCCC1 + CCNC(=O)c1noc(-c2cc(C(C)C)c(O)cc2O)c1-c1ccc(CN2CCOCC2)cc1 [Luminespib] (partner 0.01 µM)
0.131

Same for O=C(O)c1ccc(-c2c[nH]c3ncc(-c4ccccc4)cc23)cc1C1CCCC1 + CS(=O)(=O)N1CCN(Cc2cc3nc(-c4cccc5[nH]ncc45)nc(N4CCOCC4)c3s2)CC1 [Pictilisib] (partner 1 µM)
0.256
